Biological target: BMP7 (UniProt P18075 293-431)
Construct: also called osteogenic protein-1; OP-1
Sequence (looked up): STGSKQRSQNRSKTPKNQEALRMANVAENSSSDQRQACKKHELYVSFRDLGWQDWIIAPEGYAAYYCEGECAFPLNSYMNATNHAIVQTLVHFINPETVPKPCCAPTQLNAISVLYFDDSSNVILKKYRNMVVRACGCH
Experiment: Biacore SPR; receptor-Fc captured by anti-Fc antibody, ligand injected
pKd: −log10 of the molar value.
Readout type: pKd

Inquiry: Looking for the measured pKd of BMPRII-Fc homodimer (Fc fusion) , can you help?
Reply text: < 7.42

---

Target: BMP10 (UniProt O95393 317-424)
Sequence (looked up): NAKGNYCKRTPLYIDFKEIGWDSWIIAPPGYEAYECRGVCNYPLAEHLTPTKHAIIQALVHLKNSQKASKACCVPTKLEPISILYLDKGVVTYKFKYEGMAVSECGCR
Assay: Biacore SPR; receptor-Fc captured by anti-Fc antibody, ligand injected
Readout type: Kd (nM)
Field format: number, assumed nM, no unit text.

Inquiry: Looking for the measured Kd of BMPRII-Fc homodimer (Fc fusion) , can you help?
Reply text: 0.098

---

target: BMP2 (UniProt P12643 283-396); test: Biacore SPR; receptor-Fc captured by anti-Fc antibody, ligand injected
Sequence (P12643 283-396 limits assumed): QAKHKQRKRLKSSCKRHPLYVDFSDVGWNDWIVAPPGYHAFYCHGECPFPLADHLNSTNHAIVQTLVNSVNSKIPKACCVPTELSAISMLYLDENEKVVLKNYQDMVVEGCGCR
pKd: −log10 of the molar value.
Readout type: pKd

Inquiry: Looking for the measured pKd of BMPRII-Fc homodimer (Fc fusion) , can you help?
Reply text: < 5.70

---

Biological target: GDF6 (UniProt Q6KF10 336-455, limits assumed)
Construct: also called BMP13
Sequence (looked up): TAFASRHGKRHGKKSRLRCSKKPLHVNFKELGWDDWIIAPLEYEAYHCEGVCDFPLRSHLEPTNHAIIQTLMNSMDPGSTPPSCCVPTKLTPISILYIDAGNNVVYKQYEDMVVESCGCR
Assay: Biacore SPR; receptor-Fc captured by anti-Fc antibody, ligand injected
Method: Ligands were injected and allowed to flow over the captured receptor protein.
pKd: −log10 of the molar value.
Readout type: pKd

Inquiry: Lookup: pKd / GDF6 (UniProt Q6KF10 336-455, limits assumed) / BMPRII-Fc homodimer (Fc fusion)
Reply text: < 7.06

---

Biological target: BMP6 (UniProt P22004 382-513, limits assumed)
Sequence (looked up): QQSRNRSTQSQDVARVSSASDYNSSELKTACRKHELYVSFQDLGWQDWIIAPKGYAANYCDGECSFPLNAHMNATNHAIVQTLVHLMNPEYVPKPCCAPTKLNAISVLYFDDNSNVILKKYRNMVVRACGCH
Assay: Biacore SPR; receptor-Fc captured by anti-Fc antibody, ligand injected
pKd: −log10 of the molar value.
Readout type: pKd

Inquiry: Looking for the measured pKd of BMPRII-Fc homodimer (Fc fusion) , can you help?
Reply text: < 8.05

---

Target: Activin B (UniProt P09529 293-407)
Construct: also called βBβB
Sequence (looked up): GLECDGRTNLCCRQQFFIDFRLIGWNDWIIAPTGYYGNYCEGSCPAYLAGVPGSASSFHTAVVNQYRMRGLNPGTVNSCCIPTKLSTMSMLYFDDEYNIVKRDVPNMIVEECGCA
Assay: Biacore SPR; receptor-Fc captured by anti-Fc antibody, ligand injected
Experimental: Ligands were injected and allowed to flow over the captured receptor protein.
Readout type: pKd
The quantity pKd is defined as the negative base-10 logarithm of the molar concentration.

Inquiry: Looking for the measured pKd of BMPRII-Fc homodimer (Fc fusion) , can you help?
Reply text: 8.42

---

Target: BMP9 (UniProt Q9UK05 320-429)
Construct: also called GDF2
Sequence (looked up): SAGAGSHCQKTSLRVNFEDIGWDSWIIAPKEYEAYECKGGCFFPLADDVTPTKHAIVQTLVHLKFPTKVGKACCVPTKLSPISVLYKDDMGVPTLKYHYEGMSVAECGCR
Test: Biacore SPR; receptor-Fc captured by anti-Fc antibody, ligand injected
Readout type: pKd
The quantity pKd is defined as the negative base-10 logarithm of the molar concentration.

Inquiry: Lookup: pKd / BMP9 (UniProt Q9UK05 320-429) / BMPRII-Fc homodimer (Fc fusion)
Reply text: 8.68
